Data origin: patent US9828350B2

tested on: Abeta total; test: Cellular αLisa assay in SKNBE2 cells, Abeta total; assay type: cell-based, human; conditions: Homo sapiens, SKNBE2, 18 h, incubated for 18 hours, read-out: Cellular αLisa assay in SKNBE2 cells Abetatotal pIC50 (converted)
The label is Criterion met for IC50 below 3000 nM and Criterion not met for IC50 equal to or exceeding 3000 nM.

Worked cases, answers included:
- compound: "C[C@@]1(c2ccnc(-c3cc(Cl)cc(Cl)c3)c2)N=C(N)CO[C@H]1F (single isomer, unassigned)"
  classification: "Criterion not met"
- compound: "N#Cc1cncc(-c2ccc(F)c([C@@]3(C4CC4)N=C(N)CO[C@H]3F)c2)c1"
  classification: "Criterion not met"
- compound: "COc1ccc(C(=O)Nc2cccc([C@@]3(C)N=C(N)CO[C@@]3(F)C(F)(F)F)c2)nc1"
  classification: "Criterion met"

Is IC50 strictly under 3000 nM for the entry "NC1=N[C@@](c2cccc(NC(=O)c3ncc(Cl)cc3F)c2)(C2CC2)[C@@H](C(F)(F)F)OC1" ?
Criterion met

And for "C[C@]1(c2cc(-c3cncc(Cl)c3)c(F)cc2F)N=C(N)CO[C@]1(F)C(F)(F)F" ?
Criterion not met

And for COc1cnc(C(=O)Nc2ccc(F)c(C3(C)N=C(N)COC3F)c2)cn1 (single isomer, unassigned) [Compound 129] ?
Criterion not met

And for "C[C@]1(c2cc(-c3cncc(C#N)c3)c(F)cc2F)N=C(N)CO[C@@H]1C(F)(F)F" ?
Criterion met

###

tested on: Abeta total; experiment: Cellular αLisa assay in SKNBE2 cells, Abeta total; format: cell-based, human; conditions: Homo sapiens, SKNBE2, 18 h, incubated for 18 hours, read-out: Cellular αLisa assay in SKNBE2 cells Abetatotal pIC50 (converted)
The label is satisfied for IC50 below 200 nM and not satisfied for IC50 equal to or exceeding 200 nM.

- compound: "NC1=N[C@@](c2cccc(NC(=O)c3ncc(Cl)cc3F)c2)(C2CC2)[C@H](C(F)(F)F)OC1"
  classification: "satisfied"

Is IC50 strictly under 200 nM for the entry "COc1ccc(C(=O)Nc2ccc(F)c([C@@]3(C)N=C(N)CO[C@@H]3F)c2)nc1" ?
satisfied

And for COc1cncc(-c2cccc(C3(C)COCC(N)=N3)c2)c1 (single isomer, unassigned) [Compound 8] ?
satisfied

And for "Cc1cc(Cl)cnc1C(=O)Nc1cccc([C@@]2(C3CC3)N=C(N)CO[C@@H]2F)c1" ?
satisfied

And for "C[C@@]1(c2cccc(NC(=O)c3ccc(Cl)cn3)c2)COC2(CC2)C(N)=N1" ?
satisfied

And for CC1(c2cc(NC(=O)c3ccc(Cl)cn3)cc(C(F)(F)F)c2)COCC(N)=N1 (stereo not shown) ?
satisfied

And for "N#Cc1ccc(C(=O)Nc2ccc(F)c([C@@]3(C4CC4)N=C(N)CO[C@H]3C(F)(F)F)c2)nc1" ?
satisfied

###

biological target: recombinant BACE1 protein (Homo sapiens); test: Biochemical FRET based assay; settings: recombinant BACE1 1 μg/ml, 120 minutes at room temperature, pH 5.0; read-out: Biochemical FRET based assay pIC50 (converted)
Sequence (P56817 46-501): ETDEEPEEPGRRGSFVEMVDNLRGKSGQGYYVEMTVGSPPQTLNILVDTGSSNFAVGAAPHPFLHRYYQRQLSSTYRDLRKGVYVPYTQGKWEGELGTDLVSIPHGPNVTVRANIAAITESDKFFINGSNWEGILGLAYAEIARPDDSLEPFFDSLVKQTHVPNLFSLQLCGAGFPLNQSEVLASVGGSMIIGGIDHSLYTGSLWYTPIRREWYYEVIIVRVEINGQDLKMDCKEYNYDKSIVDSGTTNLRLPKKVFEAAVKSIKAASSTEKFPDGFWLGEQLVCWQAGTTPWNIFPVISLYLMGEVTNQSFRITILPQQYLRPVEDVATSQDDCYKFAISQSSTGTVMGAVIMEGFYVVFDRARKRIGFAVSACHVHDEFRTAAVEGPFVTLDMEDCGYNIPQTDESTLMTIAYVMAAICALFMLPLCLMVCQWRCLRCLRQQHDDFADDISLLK
property: IC50 (nM)
One number for each entry, in nM.

- molecule: "CCC1(c2cc(NC(=O)c3ncc(Cl)cc3F)ccc2F)N=C(N)COC1F (stereo not drawn) [Compound 283]"
  IC50 / nM: 67.6
- molecule: "CC1(c2cc(NC(=O)c3ncc(Cl)cc3Cl)ccc2F)N=C(N)COC1F (stereo not drawn) [Compound 78]"
  IC50 / nM: 55

Can you give me IC50 for all of these, one by one?
1. CC1(c2cc(-c3cncnc3)ccc2F)N=C(N)COC1(F)C(F)(F)F (single isomer, unassigned) [Compound 111]
2. COc1ccc(C(=O)Nc2ccc(F)c([C@@]3(C4CC4)N=C(N)CO[C@H]3C(F)(F)F)c2)nc1 [Compound 231]
3. C[C@]1(c2cc(NC(=O)c3ccncn3)ccc2F)N=C(N)CO[C@@]1(F)C(F)(F)F [Compound 182]
4. CC1(c2cccc(-c3cncnc3)c2)N=C(N)COC1F (single isomer, unassigned) [Compound 96]

1: 1480; 2: 33.9; 3: 550; 4: 11200

Can you give me IC50 for all of these, one by one?
1. COc1ccc(C(=O)Nc2ccc(F)c([C@@]3(C)N=C(N)CO[C@]3(F)C(F)(F)F)c2)nc1 [Compound 304]
2. CC1(c2cc(-c3cncc(C#N)c3)ccc2F)N=C(N)COC1C(F)(F)F (stereo not drawn) [Compound 239]
3. CC1(c2cccc(NC(=O)c3ncc(Cl)cc3F)c2)N=C(N)COC1F (single isomer, unassigned) [Compound 163]

1. 589
2. 1050
3. 40.7

Can you give me IC50 for all of these, one by one?
1. COc1cnc(C(=O)Nc2cccc(C3(C)N=C(N)COC3F)c2)cn1 (single isomer, unassigned) [Compound 132]
2. C[C@]1(c2cc(NC(=O)c3ncc(C#N)cc3Cl)ccc2F)N=C(N)CO[C@H]1C(F)(F)F [Compound 308]
3. Cc1cc(Br)cnc1C(=O)Nc1cccc([C@@]2(C3CC3)N=C(N)CO[C@H]2F)c1 [Compound 272]
4. CC1(c2cc(-c3cncnc3)ccc2F)N=C(N)COC1C(F)(F)F (single isomer, unassigned) [Compound 238]
5. CC1(c2cccc(-c3cncnc3)c2)N=C(N)COC1F (stereo not drawn) [Compound 98]
6. N#Cc1cnc(C(=O)Nc2cccc([C@@]3(C4CC4)N=C(N)CO[C@H]3F)c2)c(Cl)c1 [Compound 309]
7. Cc1ccc(C(=O)Nc2cccc(C3(C)N=C(N)COC3(F)C(F)(F)F)c2)nc1 (single isomer, unassigned) [Compound 191]

[1100, 49, 91.2, 832, 2820, 219, 18600]

Can you give me IC50 for all of these, one by one?
1. COc1cnc(C(=O)Nc2cccc([C@@]3(C4CC4)N=C(N)CO[C@@]3(F)C(F)(F)F)c2)cn1 [Compound 203]
2. CCC1(c2cc(-c3cncnc3)ccc2F)N=C(N)COC1(F)C(F)(F)F (stereo not drawn) [Compound 303]
3. CC1(c2cc(-c3cncnc3)c(F)cc2F)COC2(CC2)C(N)=N1 (stereo not drawn) [Compound 72]
4. NC1=N[C@@](c2cccc(NC(=O)c3ncc(Cl)cc3Cl)c2)(C2CC2)[C@H](F)OC1 [Compound 276]

1. 20.4
2. 1820
3. 2630
4. 174

###

Exercise: for every item that follows, state its recorded melting point.
Give bare numbers, in °C.

Solved cases below.
- compound: "N#Cc1ccc(C(=O)Nc2cccc([C@@]3(C4CC4)N=C(N)CO[C@@]3(F)C(F)(F)F)c2)nc1"
  measurement.unit: "°C"
  melting point: 196.12
- compound: "COc1cncc(-c2cccc(C3(C)N=C(N)COC3F)c2)c1 (centres unmarked) [Compound 100]"
  measurement.unit: "°C"
  melting point: 139.2
- compound: "COc1cncc(-c2cccc(C3(C)COCC(N)=N3)c2)c1 (racemic) [Compound 4]"
  measurement.unit: "°C"
  melting point: 150
- compound: "C[C@]1(c2cc(-c3cncc(Cl)c3)c(F)cc2F)N=C(N)CO[C@@]1(F)C(F)(F)F"
  measurement.unit: "°C"
  melting point: 70.1
- compound: "C[C@]1(c2cc(-c3cncnc3)c(F)cc2F)COC2(CC2)C(N)=N1"
  measurement.unit: "°C"
  melting point: 187.4
- compound: "COc1ccc(C(=O)Nc2ccc(F)c([C@@]3(C)N=C(N)CO[C@@H]3F)c2)nc1"
  measurement.unit: "°C"
  melting point: 185.6

Can you give me melting point for all of these, one by one?
1. COc1cncc(-c2cccc(C3(C)N=C(N)COC3F)c2)c1 (centres unmarked) [Compound 87]
2. C[C@]1(c2cc(NC(=O)c3ncc(Cl)cc3Cl)ccc2F)N=C(N)CO[C@H]1C(F)(F)F

139.23
214.23

###

target: P-gp (Homo sapiens); construct: expressed in transfected cells; host or cells: LLC-PK1 cells stably transduced with MDR1 (LLC-MDR1); assay: Transepithelial transport of test compounds through LLC-MDR1 monolayers; type: in vitro ADME; conditions: pig, LLC-PK1; read-out: B to A (Apparent Permeability, Papp)
Sequence (P08183 whole entry): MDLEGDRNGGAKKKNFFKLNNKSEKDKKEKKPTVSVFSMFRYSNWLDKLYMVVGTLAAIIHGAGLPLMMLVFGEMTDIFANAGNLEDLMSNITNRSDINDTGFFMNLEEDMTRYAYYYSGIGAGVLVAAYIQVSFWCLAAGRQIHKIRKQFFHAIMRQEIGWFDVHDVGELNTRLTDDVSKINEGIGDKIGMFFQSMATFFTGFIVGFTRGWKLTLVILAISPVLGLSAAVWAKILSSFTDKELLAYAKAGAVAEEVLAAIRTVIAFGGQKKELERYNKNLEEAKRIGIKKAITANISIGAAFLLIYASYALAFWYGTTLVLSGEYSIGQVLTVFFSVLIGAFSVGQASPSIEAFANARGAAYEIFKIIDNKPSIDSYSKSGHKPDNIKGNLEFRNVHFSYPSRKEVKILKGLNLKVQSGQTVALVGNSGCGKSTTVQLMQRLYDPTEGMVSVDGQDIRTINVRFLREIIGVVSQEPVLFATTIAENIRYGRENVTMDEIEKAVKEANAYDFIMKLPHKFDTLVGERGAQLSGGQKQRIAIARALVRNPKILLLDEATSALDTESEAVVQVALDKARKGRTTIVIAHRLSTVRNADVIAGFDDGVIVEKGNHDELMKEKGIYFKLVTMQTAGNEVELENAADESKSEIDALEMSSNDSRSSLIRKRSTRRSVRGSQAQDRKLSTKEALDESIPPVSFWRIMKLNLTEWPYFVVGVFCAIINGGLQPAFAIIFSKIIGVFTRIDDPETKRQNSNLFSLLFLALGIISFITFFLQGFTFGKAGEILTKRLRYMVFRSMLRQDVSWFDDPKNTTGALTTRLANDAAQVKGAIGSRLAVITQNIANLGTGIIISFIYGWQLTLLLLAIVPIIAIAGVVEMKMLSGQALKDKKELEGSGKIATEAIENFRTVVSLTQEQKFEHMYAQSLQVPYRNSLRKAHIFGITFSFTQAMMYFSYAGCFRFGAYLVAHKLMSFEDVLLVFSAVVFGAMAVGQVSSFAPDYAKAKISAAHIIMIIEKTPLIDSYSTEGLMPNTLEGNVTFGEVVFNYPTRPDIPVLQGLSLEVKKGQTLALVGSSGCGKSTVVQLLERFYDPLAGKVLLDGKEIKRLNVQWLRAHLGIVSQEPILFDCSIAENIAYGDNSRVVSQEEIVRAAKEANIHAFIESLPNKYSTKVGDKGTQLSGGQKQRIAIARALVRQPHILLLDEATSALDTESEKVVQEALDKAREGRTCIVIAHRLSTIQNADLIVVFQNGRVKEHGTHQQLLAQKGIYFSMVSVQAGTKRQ
The label is yes for Papp B→A at 120 min, 1 μM below 20 ×10⁻⁶ cm/s and no for Papp B→A at 120 min, 1 μM equal to or exceeding 20 ×10⁻⁶ cm/s.

Worked cases, answers included:
- compound: "C[C@]1(c2cc(NC(=O)c3ccc(C#N)cn3)ccc2F)N=C(N)CO[C@H]1C(F)(F)F"
  experimental.system: "P-gp (Homo sapiens)"
  classification: "yes"
- compound: "C[C@@]1(c2cc(-c3cncnc3)c(F)cc2F)N=C(N)CO[C@H]1F (single isomer, unassigned)"
  experimental.system: "P-gp (Homo sapiens)"
  classification: "no"
- compound: "COc1cncc(-c2cccc(C3(C)N=C(N)COC3F)c2)c1 (single isomer, unassigned) [Compound 93]"
  experimental.system: "P-gp (Homo sapiens)"
  classification: "no"
- compound: "COc1cncc(-c2cccc(C3(C)N=C(N)COC3F)c2)c1 (stereo not shown) [Compound 100]"
  experimental.system: "P-gp (Homo sapiens)"
  classification: "no"
- compound: "COc1cnc(C(=O)Nc2ccc(F)c([C@@]3(C4CC4)N=C(N)CO[C@@H]3F)c2)cn1"
  experimental.system: "P-gp (Homo sapiens)"
  classification: "yes"
- compound: "COc1cnc(C(=O)Nc2ccc(F)c([C@@]3(C)N=C(N)CO[C@H]3C(F)(F)F)c2)cn1"
  experimental.system: "P-gp (Homo sapiens)"
  classification: "yes"

Here's the next entry for you.
Is Papp B→A at 120 min, 1 μM strictly under 20 ×10⁻⁶ cm/s for the entry CC1(c2cc(NC(=O)c3ccc(Cl)cn3)ccc2F)N=C(N)COC1F (single isomer, unassigned) ?
yes
